Hello, the source for this data is ChEMBL document CHEMBL1201862, in case you need it.

For each record, write down the corresponding GI50.
Test system: LOX IMVI
Method description: NCI tumour cell line growth inhibition, 48 h
The source made the active and inactive calls. Cut-off read from the data, not from the text of the source: active = GI50 up to about 1.1 µM and inactive = higher.

Worked examples, 7 molecules total:
- Molecule: "COC(=O)C(C)(C)/N=C/N(C)C"
  Test system: "LOX IMVI"
  GI50: "68.2 µM (inactive)"
- Molecule: "Nc1cccc(/C=C/C(=O)N2CCN(CCOC(c3ccccc3)c3ccccc3)CC2)c1"
  Test system: "LOX IMVI"
  GI50: "17.9 µM (inactive)"
- Molecule: "CC1=C2C(O)C(C(C)C(=O)N(C)C)CCC2(C)C=CC1=O (stereo not drawn)"
  Test system: "LOX IMVI"
  GI50: "> 100 µM (inactive)"
- Molecule: "COC(=O)[C@]1(c2cc3ccccc3[nH]2)CC2CN(C(=O)OCc3ccccc3)C1CC2=O (stereo partly drawn)"
  Test system: "LOX IMVI"
  GI50: "22.5 µM (inactive)"
- Molecule: "C=C(C)CNC(=S)N(N)c1ccc2ccccc2c1"
  Test system: "LOX IMVI"
  GI50: "> 100 µM (inactive)"
- Molecule: "c1ccc(CN2CCN3CCN(CC2)CCN(Cc2ccccc2)CC3)cc1"
  Test system: "LOX IMVI"
  GI50: "8.81 µM (inactive)"
- Molecule: "C=CCOCCCCC(C(C)=O)C(=O)OC (stereo not drawn)"
  Test system: "LOX IMVI"
  GI50: "> 100 µM (inactive)"

Could you now consider this next molecule?
Reported GI50 for LOX IMVI, given `N#Cc1c(N2CCCC2)ncn(Cc2ccccc2)c1=S` ?
> 100 µM (inactive)
